molecular target: integrin αIIbβ3 on CHO cells (CHO-αIIbβ3) (UniProt P08514); assay: cell adhesion inhibition: CHO-αIIbβ3 cells to immobilized fibrinogen
attribute measured: pIC50
// returns pIC50 (minus log10 of molar concentration), number only

Tell me pIC50 reported for trimucrin mutant T/IEEGKRR
4.47
